tested_system: UniProtKB P11712
Sequence (P11712 whole entry): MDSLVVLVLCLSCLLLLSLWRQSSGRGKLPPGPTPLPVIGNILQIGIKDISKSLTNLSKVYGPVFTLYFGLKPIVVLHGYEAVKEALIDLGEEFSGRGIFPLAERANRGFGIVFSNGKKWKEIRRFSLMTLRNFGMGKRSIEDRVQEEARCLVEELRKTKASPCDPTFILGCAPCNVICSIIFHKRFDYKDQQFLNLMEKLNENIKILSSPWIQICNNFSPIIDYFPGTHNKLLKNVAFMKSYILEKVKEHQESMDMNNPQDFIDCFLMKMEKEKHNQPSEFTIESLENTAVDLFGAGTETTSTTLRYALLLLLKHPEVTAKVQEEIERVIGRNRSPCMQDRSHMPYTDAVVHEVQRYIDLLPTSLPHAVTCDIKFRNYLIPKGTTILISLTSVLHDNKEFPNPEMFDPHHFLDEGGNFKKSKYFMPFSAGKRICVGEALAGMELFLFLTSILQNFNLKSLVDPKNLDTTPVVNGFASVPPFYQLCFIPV
test_summary: Cytochrome P450 inhibition, Protocol A, cDNA expressed proteins, fluorogenic substrate
Type: in vitro ADME
conditions: % inhibition at 10 μM; substrate MFC; cDNA expressed protein
metric_name: hCYP2C9_MFC_Pct_Inh (%)
Give the value, in units of %, as a plain number.

Would you please look over these solved cases?
| molecule | unit_string | numeric_result |
| --- | --- | --- |
| CC(=O)c1ccc(C2=NCc3c(Cl)cccc3-n3cccc32)cc1 [drawing 88] | % | 82 |
| CCc1ccc(C2=NCc3c(Cl)cccc3-n3cccc32)cc1 [drawing 89] | % | 41 |
| CCc1ccc(C2NCc3c(Cl)cccc3-n3cccc32)cc1.Cl (centres unmarked) | % | 68 |
| CC(=O)c1ccc(C2NCc3c(Cl)cccc3-n3cccc32)cc1.Cl (centres unmarked) | % | 54 |

Now look at this entry.
Param readout = hCYP2C9_MFC_Pct_Inh; param system = UniProtKB P11712; param query = CC(=O)c1cc(C2=NCc3c(Cl)cc(Cl)cc3-n3cccc32)ccc1F [Compound 23] ; response: value
51
